Give Average % Inhibition (HT29 adhesion to TGFβLAP) for every item shown.
- TGT: human αVβ6 integrin on cells (human, UniProt P06756 31-1048; P18564 22-788)
- Sequence (P06756 31-1048, chain 1 of 2): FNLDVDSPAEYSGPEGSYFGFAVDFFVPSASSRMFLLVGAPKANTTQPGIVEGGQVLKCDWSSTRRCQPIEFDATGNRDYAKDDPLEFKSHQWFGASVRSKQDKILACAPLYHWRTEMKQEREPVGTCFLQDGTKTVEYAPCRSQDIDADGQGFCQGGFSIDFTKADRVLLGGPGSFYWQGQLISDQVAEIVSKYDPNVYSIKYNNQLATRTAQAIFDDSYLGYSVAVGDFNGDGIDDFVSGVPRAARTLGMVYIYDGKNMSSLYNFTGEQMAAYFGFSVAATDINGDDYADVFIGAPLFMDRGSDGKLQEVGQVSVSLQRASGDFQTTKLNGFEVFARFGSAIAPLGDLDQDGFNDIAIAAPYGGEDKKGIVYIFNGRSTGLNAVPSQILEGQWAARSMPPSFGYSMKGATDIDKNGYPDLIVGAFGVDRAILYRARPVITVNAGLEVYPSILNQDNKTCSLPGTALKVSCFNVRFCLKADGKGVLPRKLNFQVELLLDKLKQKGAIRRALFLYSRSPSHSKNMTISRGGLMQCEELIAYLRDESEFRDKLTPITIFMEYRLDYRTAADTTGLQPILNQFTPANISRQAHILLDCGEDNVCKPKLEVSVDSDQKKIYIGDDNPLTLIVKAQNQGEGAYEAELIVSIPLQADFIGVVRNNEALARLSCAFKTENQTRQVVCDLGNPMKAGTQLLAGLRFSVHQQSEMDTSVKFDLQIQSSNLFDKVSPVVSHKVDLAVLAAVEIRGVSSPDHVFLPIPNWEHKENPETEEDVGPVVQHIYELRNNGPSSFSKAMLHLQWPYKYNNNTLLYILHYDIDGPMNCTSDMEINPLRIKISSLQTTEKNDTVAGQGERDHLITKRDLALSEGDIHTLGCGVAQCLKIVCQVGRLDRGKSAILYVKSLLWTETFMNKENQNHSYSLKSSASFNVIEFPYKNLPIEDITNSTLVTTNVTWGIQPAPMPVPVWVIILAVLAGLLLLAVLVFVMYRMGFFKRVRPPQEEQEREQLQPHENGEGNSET
- Sequence (P18564 22-788, chain 2 of 2): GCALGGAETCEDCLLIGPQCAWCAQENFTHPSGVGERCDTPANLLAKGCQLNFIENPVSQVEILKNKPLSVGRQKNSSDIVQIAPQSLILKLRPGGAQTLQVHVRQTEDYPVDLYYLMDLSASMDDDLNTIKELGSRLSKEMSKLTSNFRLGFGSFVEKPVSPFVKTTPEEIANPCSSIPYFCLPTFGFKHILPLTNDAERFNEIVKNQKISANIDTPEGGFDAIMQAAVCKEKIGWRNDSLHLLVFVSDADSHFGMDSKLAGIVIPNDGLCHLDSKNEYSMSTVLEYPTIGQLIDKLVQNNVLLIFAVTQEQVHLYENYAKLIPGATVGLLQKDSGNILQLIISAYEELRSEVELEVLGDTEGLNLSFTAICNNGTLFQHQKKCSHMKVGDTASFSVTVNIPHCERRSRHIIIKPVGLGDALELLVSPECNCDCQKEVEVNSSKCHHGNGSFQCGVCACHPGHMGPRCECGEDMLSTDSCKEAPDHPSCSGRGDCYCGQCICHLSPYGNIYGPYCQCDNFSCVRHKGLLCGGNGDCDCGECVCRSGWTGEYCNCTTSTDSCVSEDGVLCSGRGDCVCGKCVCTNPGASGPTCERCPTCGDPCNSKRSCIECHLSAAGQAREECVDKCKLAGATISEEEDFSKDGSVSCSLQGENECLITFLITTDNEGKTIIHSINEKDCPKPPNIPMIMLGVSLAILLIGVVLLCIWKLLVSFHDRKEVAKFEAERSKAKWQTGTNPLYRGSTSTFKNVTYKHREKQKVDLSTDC
- MEASUREMENT_DESCRIPTION: cell-based or functional assay
Answers are plain numbers, in %.

Known results for binders:
BINDER: sc 161 (antibody, V domains shown) VH: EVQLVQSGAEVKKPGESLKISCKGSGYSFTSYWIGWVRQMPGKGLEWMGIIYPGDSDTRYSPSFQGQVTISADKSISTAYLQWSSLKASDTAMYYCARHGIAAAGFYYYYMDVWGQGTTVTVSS VL: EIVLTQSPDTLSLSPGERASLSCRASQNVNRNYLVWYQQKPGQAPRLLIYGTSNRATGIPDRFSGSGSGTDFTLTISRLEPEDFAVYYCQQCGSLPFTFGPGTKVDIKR
UNIT_TAG: %
OBSERVED: 102
--
BINDER: sc 188 (antibody, V domains shown) VH: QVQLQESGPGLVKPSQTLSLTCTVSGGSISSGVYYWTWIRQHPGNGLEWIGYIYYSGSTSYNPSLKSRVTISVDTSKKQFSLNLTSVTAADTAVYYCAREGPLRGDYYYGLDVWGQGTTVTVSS VL: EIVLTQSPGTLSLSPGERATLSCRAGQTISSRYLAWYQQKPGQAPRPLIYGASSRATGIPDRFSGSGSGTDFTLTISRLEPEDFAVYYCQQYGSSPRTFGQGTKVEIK
UNIT_TAG: %
OBSERVED: 101
--
BINDER: sc 277 (antibody, V domains shown) VH: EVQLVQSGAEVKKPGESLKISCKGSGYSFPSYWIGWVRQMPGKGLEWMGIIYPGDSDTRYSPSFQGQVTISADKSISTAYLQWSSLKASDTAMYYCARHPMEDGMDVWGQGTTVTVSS VL: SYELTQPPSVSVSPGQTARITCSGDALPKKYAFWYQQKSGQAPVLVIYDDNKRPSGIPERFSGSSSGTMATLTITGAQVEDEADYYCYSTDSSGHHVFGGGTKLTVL
UNIT_TAG: %
OBSERVED: 100

Consider the additional binder presented here.
*Q* For the binder sc 254 (antibody, V domains shown) VH: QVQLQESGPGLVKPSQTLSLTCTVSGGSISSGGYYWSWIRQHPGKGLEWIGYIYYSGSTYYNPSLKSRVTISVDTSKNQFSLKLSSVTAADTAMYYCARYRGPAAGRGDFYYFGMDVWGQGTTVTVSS VL: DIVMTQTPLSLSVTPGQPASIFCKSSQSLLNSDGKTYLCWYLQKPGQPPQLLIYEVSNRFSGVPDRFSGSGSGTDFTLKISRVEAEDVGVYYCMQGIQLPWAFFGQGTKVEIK , report Average % Inhibition (HT29 adhesion to TGFβLAP).
*A* 102
